A compilation of published pIC50 results with Oxysterols receptor LXR-beta (Homo sapiens, UniProt P55055).
The scale used: pIC50 is minus the common logarithm of the concentration in molar units.

Example results:
>>> value_measured("CCN(Cc1nc(-c2cccc(C(=O)OC)c2)oc1C)c1ccc(C(O)(C(F)(F)F)C(F)(F)F)cc1")
8.24
>>> value_measured("CS(=O)(=O)c1cccc(Oc2cccc(-c3c(Cc4ccccc4)nn4c(C(F)(F)F)ccnc34)c2)c1")
8.62
>>> value_measured("CC(C)c1cnc2c(Cl)cccc2c1-c1cccc(OC(=O)c2ccc(S(C)(=O)=O)cc2)c1")
7.77

Field: next compound
Let me check: Cc1nc2cccc(C(F)(F)F)c2nc1-c1cccc(Oc2cccc(S(C)(=O)=O)c2)c1 , system Oxysterols receptor LXR-beta (Homo sapiens, UniProt P55055), measured pIC50 is 6.60
